target: human STING variant AQ (Homo sapiens, UniProt Q86WV6, G230A/H232R/R293Q); assay: THP1-Blue ISG IRF-inducible SEAP reporter assay, STING AQ-variant; conditions: THP1-Blue ISG hSTING KO cells expressing STING AQ; 24 hours incubation
Sequence (Q86WV6 whole entry G230A/H232R/R293Q): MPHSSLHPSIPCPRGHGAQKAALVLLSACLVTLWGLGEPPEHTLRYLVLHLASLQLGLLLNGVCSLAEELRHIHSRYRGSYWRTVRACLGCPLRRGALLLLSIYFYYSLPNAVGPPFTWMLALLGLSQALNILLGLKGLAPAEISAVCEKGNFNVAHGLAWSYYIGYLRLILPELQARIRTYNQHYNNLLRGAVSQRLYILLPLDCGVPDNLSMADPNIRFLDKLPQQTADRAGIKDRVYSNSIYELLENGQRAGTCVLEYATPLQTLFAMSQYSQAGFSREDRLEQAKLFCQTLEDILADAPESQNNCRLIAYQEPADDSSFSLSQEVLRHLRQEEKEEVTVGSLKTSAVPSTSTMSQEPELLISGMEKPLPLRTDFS
MEASURED ENDPOINT: EC50 (nM)

Reference set, count: 6
Cc1cc(Cl)cc2c(-c3cccc4nn(C)cc34)nn(-c3ccc(N4C[C@@H]5[C@H](C4)[C@H]5C(=O)O)nc3)c12 : 2400
Cc1cc(F)cc2c(-c3cccc4nn(C)cc34)nn(-c3ccc(N4CCS(=O)(=O)CC4)nc3)c12 : 1800
Cc1c(Cl)ccc2c(-c3cccc4nn(C)cc34)nn(-c3ccc(N4CCC(S(C)(=O)=O)CC4)nc3)c12 : 600
Cc1c(Cl)ccc2c(-c3cccc4nn(C)cc34)nn(-c3ccc(N4C[C@@H]5[C@H](C4)[C@H]5C(=O)O)nc3)c12 : 100
Cc1cc(F)cc2c(-c3cccc4nn(C)cc34)nn(-c3ccc(N4CCC(C(=O)O)CC4)nc3)c12 : 300
Cc1cc(F)cc2c(-c3cccc4nn(C)cc34)nn(-c3ccc(N4CCN(C=O)CC4)nc3)c12 : 1000

(A) Cc1c(Cl)c(F)cc2c(-c3cccc4nn(C)cc34)nn(-c3ccc(N4CCC(C(=O)O)CC4)nc3)c12
(B) Cc1cc(Cl)cc2c(-c3cccc4nn(C)cc34)nn(-c3ccc(N4CCC(C(=O)O)CC4)nc3)c12
**Query** Which has the smaller recorded EC50, A or B ? # reply format: chosen label
**Result** A
(A: 600 nM, B: 5600 nM)
